tested.system: SIX1 homeodomain (reference allele) (human, UniProt Q15475 108-198)
Sequence: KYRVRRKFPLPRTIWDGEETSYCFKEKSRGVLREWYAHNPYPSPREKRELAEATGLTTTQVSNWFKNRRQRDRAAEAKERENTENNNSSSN
test.method.notes: universal protein binding microarray; Universal all-10-mer PBM (8x60K, AMADID 030236), 300 nM GST-tagged protein, Alexa Fluor 488 anti-GST; buffer, salt, pH and temperature not stated (as in Berger); high values mean tight binding
reported.conditions: protein: ivt; tags: N-terminal GST; dsDNA, one strand shown
In all, about 33,000 sequences were measured (“e-score”: median about -0.053, highest 2% from about 0.38 on). This excerpt belongs to a sample that is enriched for the highest values.
Known binding signal of a selection of sequences
recorded.metric: binding signal

INSERT INTO measurements (monomer_sequence, tested_system, recorded_metric, value_reported) VALUES
  ('CCTATCCG', 'SIX1 homeodomain (reference allele) (human, UniProt Q15475 108-198)', 'binding signal', '0.316 E-score'),
  ('ATATCCAT', 'SIX1 homeodomain (reference allele) (human, UniProt Q15475 108-198)', 'binding signal', '0.389 E-score'),
  ('TAATCCAA', 'SIX1 homeodomain (reference allele) (human, UniProt Q15475 108-198)', 'binding signal', '0.185 E-score'),
  ('CGATCCAC', 'SIX1 homeodomain (reference allele) (human, UniProt Q15475 108-198)', 'binding signal', '0.375 E-score'),
  ('AGGATCGC', 'SIX1 homeodomain (reference allele) (human, UniProt Q15475 108-198)', 'binding signal', '0.27 E-score'),
  ('AATACCAC', 'SIX1 homeodomain (reference allele) (human, UniProt Q15475 108-198)', 'binding signal', '0.33 E-score'),
  ('CAATCCAC', 'SIX1 homeodomain (reference allele) (human, UniProt Q15475 108-198)', 'binding signal', '0.168 E-score'),
  ('AGTATACG', 'SIX1 homeodomain (reference allele) (human, UniProt Q15475 108-198)', 'binding signal', '0.26 E-score'),
  ('GGGATCCC', 'SIX1 homeodomain (reference allele) (human, UniProt Q15475 108-198)', 'binding signal', '0.415 E-score'),
  ('GGTGTCCA', 'SIX1 homeodomain (reference allele) (human, UniProt Q15475 108-198)', 'binding signal', '0.314 E-score'),
  ('ATATCCAC', 'SIX1 homeodomain (reference allele) (human, UniProt Q15475 108-198)', 'binding signal', '0.395 E-score'),
  ('ATATGTAC', 'SIX1 homeodomain (reference allele) (human, UniProt Q15475 108-198)', 'binding signal', '0.244 E-score'),
  ('GTATCCAA', 'SIX1 homeodomain (reference allele) (human, UniProt Q15475 108-198)', 'binding signal', '0.421 E-score'),
  ('ACTATCTG', 'SIX1 homeodomain (reference allele) (human, UniProt Q15475 108-198)', 'binding signal', '0.178 E-score'),
  ('AGTACACC', 'SIX1 homeodomain (reference allele) (human, UniProt Q15475 108-198)', 'binding signal', '0.209 E-score'),
  ('GGTGTCAC', 'SIX1 homeodomain (reference allele) (human, UniProt Q15475 108-198)', 'binding signal', '0.476 E-score'),
  ('GGGATCTA', 'SIX1 homeodomain (reference allele) (human, UniProt Q15475 108-198)', 'binding signal', '0.272 E-score'),
  ('ATCGCCTG', 'SIX1 homeodomain (reference allele) (human, UniProt Q15475 108-198)', 'binding signal', '0.206 E-score'),
  ('AGTGTCAA', 'SIX1 homeodomain (reference allele) (human, UniProt Q15475 108-198)', 'binding signal', '0.168 E-score'),
  ('ATCGCCGA', 'SIX1 homeodomain (reference allele) (human, UniProt Q15475 108-198)', 'binding signal', '0.19 E-score'),
  ('TATACCGA', 'SIX1 homeodomain (reference allele) (human, UniProt Q15475 108-198)', 'binding signal', '0.339 E-score'),
  ('GGTATCCA', 'SIX1 homeodomain (reference allele) (human, UniProt Q15475 108-198)', 'binding signal', '0.464 E-score'),
  ('ACAATACC', 'SIX1 homeodomain (reference allele) (human, UniProt Q15475 108-198)', 'binding signal', '0.318 E-score'),
  ('AGGATCCG', 'SIX1 homeodomain (reference allele) (human, UniProt Q15475 108-198)', 'binding signal', '0.308 E-score'),
  ('ATAGCATA', 'SIX1 homeodomain (reference allele) (human, UniProt Q15475 108-198)', 'binding signal', '0.218 E-score'),
  ('ACACCGCT', 'SIX1 homeodomain (reference allele) (human, UniProt Q15475 108-198)', 'binding signal', '0.224 E-score'),
  ('ATATCCAG', 'SIX1 homeodomain (reference allele) (human, UniProt Q15475 108-198)', 'binding signal', '0.373 E-score'),
  ('GGTGTCAA', 'SIX1 homeodomain (reference allele) (human, UniProt Q15475 108-198)', 'binding signal', '0.454 E-score'),
  ('ACTATCCA', 'SIX1 homeodomain (reference allele) (human, UniProt Q15475 108-198)', 'binding signal', '0.241 E-score'),
  ('GCTATCCA', 'SIX1 homeodomain (reference allele) (human, UniProt Q15475 108-198)', 'binding signal', '0.204 E-score'),
  ('GCGACCGA', 'SIX1 homeodomain (reference allele) (human, UniProt Q15475 108-198)', 'binding signal', '0.151 E-score'),
  ('GGGATCCA', 'SIX1 homeodomain (reference allele) (human, UniProt Q15475 108-198)', 'binding signal', '0.375 E-score'),
  ('AGATCTCG', 'SIX1 homeodomain (reference allele) (human, UniProt Q15475 108-198)', 'binding signal', '0.214 E-score'),
  ('CCCCTATC', 'SIX1 homeodomain (reference allele) (human, UniProt Q15475 108-198)', 'binding signal', '0.405 E-score'),
  ('GGTGTCTA', 'SIX1 homeodomain (reference allele) (human, UniProt Q15475 108-198)', 'binding signal', '0.35 E-score'),
  ('CTATCCAC', 'SIX1 homeodomain (reference allele) (human, UniProt Q15475 108-198)', 'binding signal', '0.219 E-score'),
  ('GGTGTCGA', 'SIX1 homeodomain (reference allele) (human, UniProt Q15475 108-198)', 'binding signal', '0.408 E-score'),
  ('GAGGATCC', 'SIX1 homeodomain (reference allele) (human, UniProt Q15475 108-198)', 'binding signal', '0.366 E-score'),
  ('GATACCAC', 'SIX1 homeodomain (reference allele) (human, UniProt Q15475 108-198)', 'binding signal', '0.462 E-score'),
  ('ATATAGGG', 'SIX1 homeodomain (reference allele) (human, UniProt Q15475 108-198)', 'binding signal', '0.229 E-score'),
  ('CAGATCGC', 'SIX1 homeodomain (reference allele) (human, UniProt Q15475 108-198)', 'binding signal', '0.284 E-score'),
  ('ACCCTATC', 'SIX1 homeodomain (reference allele) (human, UniProt Q15475 108-198)', 'binding signal', '0.346 E-score'),
  ('AGTGTCAC', 'SIX1 homeodomain (reference allele) (human, UniProt Q15475 108-198)', 'binding signal', '0.253 E-score'),
  ('ACTTGTAT', 'SIX1 homeodomain (reference allele) (human, UniProt Q15475 108-198)', 'binding signal', '0.246 E-score'),
  ('CTAGATGC', 'SIX1 homeodomain (reference allele) (human, UniProt Q15475 108-198)', 'binding signal', '0.153 E-score'),
  ('GGGGTCAA', 'SIX1 homeodomain (reference allele) (human, UniProt Q15475 108-198)', 'binding signal', '0.151 E-score');

* * *

tested.system: SIX1 homeodomain (reference allele) (human, UniProt Q15475 108-198)
Sequence: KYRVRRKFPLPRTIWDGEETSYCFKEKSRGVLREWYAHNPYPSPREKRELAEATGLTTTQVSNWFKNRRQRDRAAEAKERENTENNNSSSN
test.method.notes: universal protein binding microarray; Universal all-10-mer PBM (8x60K, AMADID 030236), 300 nM GST-tagged protein, Alexa Fluor 488 anti-GST; buffer, salt, pH and temperature not stated (as in Berger); high values mean tight binding
reported.conditions: protein: ivt; tags: N-terminal GST; dsDNA, one strand shown
Over roughly 33,000 sequences, “e-score” has its median near -0.053; the highest 2% begin near 0.38. The full list was thinned out, with the highest values kept by preference.
recorded.metric: binding signal (E-score)

INSERT INTO assay_data (monomer_sequence, recorded_metric, value_reported) VALUES
  ('TACTCACA', 'binding signal', 0.165),
  ('AATACCCA', 'binding signal', 0.29),
  ('GACGATAC', 'binding signal', 0.453),
  ('ATCGCCTC', 'binding signal', 0.216),
  ('CATACCCC', 'binding signal', 0.258),
  ('ATTGTATC', 'binding signal', 0.367),
  ('AAGGGATC', 'binding signal', 0.377),
  ('CCAGTATC', 'binding signal', 0.407),
  ('CCGTATAC', 'binding signal', 0.36),
  ('CCGTATTC', 'binding signal', 0.177),
  ('ACACCAGC', 'binding signal', 0.211),
  ('AATACCTC', 'binding signal', 0.331),
  ('ACACCTGT', 'binding signal', 0.277),
  ('AATACCCG', 'binding signal', 0.293),
  ('ATACTGCA', 'binding signal', 0.242),
  ('ACGTATAA', 'binding signal', 0.268),
  ('GATCGGCA', 'binding signal', 0.211),
  ('CACCGATC', 'binding signal', 0.305),
  ('CCTGTATC', 'binding signal', 0.365),
  ('GCAGTATA', 'binding signal', 0.205),
  ('CGAGATCG', 'binding signal', 0.207),
  ('TCGATCCA', 'binding signal', 0.152),
  ('GGCGATCA', 'binding signal', 0.338),
  ('ATATAGCA', 'binding signal', 0.248),
  ('CGATCTTC', 'binding signal', 0.288),
  ('ATAGTAGC', 'binding signal', 0.187),
  ('ATCAGACC', 'binding signal', 0.201),
  ('GCGTTAGA', 'binding signal', 0.197),
  ('ATCCACGA', 'binding signal', 0.154),
  ('ATCGTTTG', 'binding signal', 0.196),
  ('ATACTACC', 'binding signal', 0.23),
  ('ACGTATCG', 'binding signal', 0.413),
  ('ACGATCCG', 'binding signal', 0.425),
  ('ACGTATTC', 'binding signal', 0.234),
  ('GGCGATGA', 'binding signal', 0.193),
  ('GATACCCC', 'binding signal', 0.496),
  ('ACTAGATC', 'binding signal', 0.181),
  ('GAAGATAC', 'binding signal', 0.354),
  ('ACGTATCA', 'binding signal', 0.474),
  ('AATACCAG', 'binding signal', 0.306),
  ('ACAGTATC', 'binding signal', 0.402),
  ('ACGTATCT', 'binding signal', 0.339),
  ('AGCGATCG', 'binding signal', 0.211),
  ('CCGATCCA', 'binding signal', 0.29),
  ('CGTCTCAA', 'binding signal', 0.286),
  ('ACAGTATA', 'binding signal', 0.287);

Attribution: paper PMC10668032
